target: Sterol O-acyltransferase 1 (Rattus norvegicus); assay: In vitro Acyl coenzyme A:cholesterol acyltransferase inhibition in hepatic microsomes isolated from cholesterol-fed rats
Sequence (O70536 whole entry): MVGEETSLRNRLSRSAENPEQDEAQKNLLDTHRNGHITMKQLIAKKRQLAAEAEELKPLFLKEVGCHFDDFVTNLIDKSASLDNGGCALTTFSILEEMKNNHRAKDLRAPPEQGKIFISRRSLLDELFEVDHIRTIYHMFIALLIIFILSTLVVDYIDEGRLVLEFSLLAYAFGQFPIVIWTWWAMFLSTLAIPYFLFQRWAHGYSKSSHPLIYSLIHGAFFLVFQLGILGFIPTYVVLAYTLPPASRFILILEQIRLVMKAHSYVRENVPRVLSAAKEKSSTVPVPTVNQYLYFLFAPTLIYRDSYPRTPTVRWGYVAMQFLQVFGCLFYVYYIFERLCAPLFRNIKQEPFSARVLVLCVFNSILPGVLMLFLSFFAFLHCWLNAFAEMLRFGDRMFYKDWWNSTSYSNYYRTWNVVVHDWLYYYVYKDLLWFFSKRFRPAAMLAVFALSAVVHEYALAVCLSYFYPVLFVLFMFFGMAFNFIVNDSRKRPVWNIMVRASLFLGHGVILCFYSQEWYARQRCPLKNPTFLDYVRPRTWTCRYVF
ASSAY ENDPOINT: IC50

MOLECULE	IC50
CCOC(=O)C(C)(C)C(=O)Nc1c(C(C)C)cccc1C(C)C	> 1000 nM
CCCOC(=O)C(C(=O)Nc1c(C(C)C)cccc1C(C)C)c1ccccc1 (stereo not drawn)	> 1000 nM

Could you now consider this next molecule?
Inquiry: // fetch IC50 for CCOC(=O)C(F)C(=O)Nc1c(C(C)C)cccc1C(C)C (stereo not drawn) ; system: Sterol O-acyltransferase 1 (Rattus norvegicus)
Reply text: > 1000 nM
